Before we begin, note that these pIC50 values for Dual specificity protein kinase TTK (Homo sapiens) originate from several publications.
Molecular target: Dual specificity protein kinase TTK (Homo sapiens)
Sequence (P33981 whole entry): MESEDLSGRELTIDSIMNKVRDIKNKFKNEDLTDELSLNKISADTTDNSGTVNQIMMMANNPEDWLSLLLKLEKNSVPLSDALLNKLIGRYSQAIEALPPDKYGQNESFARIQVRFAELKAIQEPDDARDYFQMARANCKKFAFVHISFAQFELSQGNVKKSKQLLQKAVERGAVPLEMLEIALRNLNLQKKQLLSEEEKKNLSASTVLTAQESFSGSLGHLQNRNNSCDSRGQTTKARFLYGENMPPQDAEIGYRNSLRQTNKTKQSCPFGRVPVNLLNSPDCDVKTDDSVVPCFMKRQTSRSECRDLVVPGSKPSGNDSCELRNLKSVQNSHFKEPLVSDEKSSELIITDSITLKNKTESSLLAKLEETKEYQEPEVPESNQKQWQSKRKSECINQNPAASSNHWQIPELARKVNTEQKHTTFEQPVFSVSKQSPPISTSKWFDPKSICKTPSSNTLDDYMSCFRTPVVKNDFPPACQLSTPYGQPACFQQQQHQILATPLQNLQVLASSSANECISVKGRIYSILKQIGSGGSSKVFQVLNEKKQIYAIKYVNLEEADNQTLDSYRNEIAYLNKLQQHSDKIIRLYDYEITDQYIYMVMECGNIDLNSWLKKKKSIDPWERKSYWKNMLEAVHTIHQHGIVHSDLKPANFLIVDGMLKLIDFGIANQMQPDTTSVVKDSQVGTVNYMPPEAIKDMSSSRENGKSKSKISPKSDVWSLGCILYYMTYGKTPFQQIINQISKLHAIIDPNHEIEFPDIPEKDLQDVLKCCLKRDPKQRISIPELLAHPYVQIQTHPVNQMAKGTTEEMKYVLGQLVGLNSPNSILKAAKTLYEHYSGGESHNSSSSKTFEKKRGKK
pIC50: −log10 of the molar value.
quantity-measured: pIC50

input-smiles: CCN1CCN(c2ccc(Nc3nc(-n4nc(N)c5ccccc54)c4cc[nH]c4n3)cc2)CC1
experimental-result: 7.49

(P) Cc1cc(-c2cnn3c(NCC4CCOCC4)cc(N[C@@H]4CCCC[C@H]4O)nc23)ccc1C(=O)NC1CC1
(Q) COc1cc(N2CCN(S(C)(=O)=O)CC2)ccc1Nc1ncc2cccc(NC3CCCCC3)c2n1
(R) COc1cc(N2CCN(S(C)(=O)=O)CC2)ccc1Nc1ncc2cccc(-c3cccnc3)c2n1
(S) CN1CCN(c2ccc(Nc3nc(-n4nc(N)c5ccccc54)c4cc[nH]c4n3)cc2Cl)CC1
[in] Sort low-to-high on pIC50, please. A complete answer lists every label in the requested sequence.
[out] S, P, R, Q
(S: 7.30, P: 7.89, R: 8.10, Q: 8.70)
